Target: T1, extracellular domain (ECD) NPR-C (27–481)-6His (human, UniProt P17342-2 27-481)
T1 construct: natriuretic peptide receptor C (NPR-C), human, extracellular domain, residues 27-481; Mainly monomer (~55 kDa) on non-reducing SDS-PAGE; the discussion says ~25% of the molecules are disulphide-bonded; The tag's end is read from the construct's name; also called (27–481)-6His (ECD); extracellular NPR-C; source: expressed and isolated at Peak Proteins, UK; not shown: 6His, C-terminal, kept
T1 sequence (looked up): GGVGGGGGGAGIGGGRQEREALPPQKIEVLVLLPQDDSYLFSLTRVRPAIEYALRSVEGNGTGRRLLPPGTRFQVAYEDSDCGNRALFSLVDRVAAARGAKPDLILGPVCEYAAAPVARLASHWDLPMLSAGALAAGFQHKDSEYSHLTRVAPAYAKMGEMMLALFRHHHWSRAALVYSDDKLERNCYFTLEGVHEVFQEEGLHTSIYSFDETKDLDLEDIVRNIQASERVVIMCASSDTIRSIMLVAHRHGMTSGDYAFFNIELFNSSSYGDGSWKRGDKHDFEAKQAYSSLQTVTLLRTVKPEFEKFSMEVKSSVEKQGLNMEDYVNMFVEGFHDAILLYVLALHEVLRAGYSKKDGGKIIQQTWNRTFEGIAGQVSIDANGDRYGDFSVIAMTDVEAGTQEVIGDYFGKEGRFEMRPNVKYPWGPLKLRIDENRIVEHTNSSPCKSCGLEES
Assay: fluorescence polarisation; competition against 15 nM Flu-P19 probe; FL NPR-C 150 nM or ECD NPR-C 400 nM; competitor 4.89 nM-2.5 uM; HEPES buffer, 3% DMSO; Ki computed from IC50 with a web-based converter
Details: both partners purified
Bridge positions count the residues as written; N and C are the ends. Ends that are not written are not given here.
measured-property: Ki (nM)

>  <binder>
GLSKGCFGLKLDRIGSMSGLGC (ligand, disulfide 6-22 (inferred)) [C-type natriuretic peptide]

>  <measured-property>
Ki

>  <value-unit>
nM

>  <meas-value>
0.1

$$$$

Source: paper PMC6879014
